# assayedSystem: human PYCR1 (Homo sapiens)
# Sequence (P32322 1-300): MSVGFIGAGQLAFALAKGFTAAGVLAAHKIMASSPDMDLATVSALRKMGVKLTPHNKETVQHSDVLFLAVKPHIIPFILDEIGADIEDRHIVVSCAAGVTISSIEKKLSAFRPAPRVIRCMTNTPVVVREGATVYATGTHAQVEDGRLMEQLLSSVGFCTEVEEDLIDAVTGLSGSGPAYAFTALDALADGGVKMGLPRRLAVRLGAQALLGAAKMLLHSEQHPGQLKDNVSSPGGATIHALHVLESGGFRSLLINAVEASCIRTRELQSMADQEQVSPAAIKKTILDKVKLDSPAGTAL
# procedureDetails: biochemical
# setupConditions: Ki (estimated), competitive with P5C; NADH fixed 175 μM; rounded values
Parameter Ki: see the listing below.
quantityMeasured: Ki

> print(dat)
                                   compound  quantitymeasured  observed
1  O=C(O)[C@@H]1CSCN1 [L-T4C, L-thiazolidine-4-carboxylate]                Ki   ~600 µM
2  O=C(O)C1NCCS1 [L-T2C, L-thiazolidine-2-carboxylate]                Ki   ~400 µM

Source: paper PMC7939384
